intrinsic clearance, rat liver microsomes values by entry

Here are 8 compounds together with their reported answers.
[[record]]
chemical_structure = "O=C(CCN1C(=O)CCC1=O)Nc1cccc2ncccc12"
observed_result = "≤ 0.64 L/h/kg"

[[record]]
chemical_structure = "C#Cc1cccc(N(CC(=O)NC(N)=O)Cc2cccs2)c1"
observed_result = "96.4 L/h/kg"

[[record]]
chemical_structure = "N#Cc1cccnc1Nc1cnn(Cc2ccccc2)c1"
observed_result = "51 L/h/kg"

[[record]]
chemical_structure = "COc1nc2c(cc1CNC(=O)N1CCC[C@@H]1CO)C(=O)N(C1CCCC1)C2"
observed_result = "4.14 L/h/kg"

[[record]]
chemical_structure = "CN(CC(=O)Nc1cc(F)cc(F)c1)c1ccnc(C(N)=O)c1"
observed_result = "2.56 L/h/kg"

[[record]]
chemical_structure = "COc1ccc(F)cc1-c1ccc(-c2nnco2)cc1"
observed_result = "20 L/h/kg"

[[record]]
chemical_structure = "CNC(=O)c1cn(C)nc1CC1CCN(Cc2cnc(-c3ccc(OC)cc3)nc2)CC1"
observed_result = "1.43 L/h/kg"

[[record]]
chemical_structure = "COc1cc2c(cc1OC)CC(=O)N(CCCN(C)C[C@H]1Cc3cc(OC)c(OC)cc31)CC2"
observed_result = "9.79 L/h/kg"


### Prompt Quick one: intrinsic clearance, rat liver microsomes for Brc1cnc(N2CCCN(c3ccccc3)CC2)nc1 ?
### Response 340 L/h/kg

### Prompt Quick one: intrinsic clearance, rat liver microsomes for Cc1nnc2ccc(NCCOC3CCCCCC3)nn12 ?
### Response 54.1 L/h/kg

### Prompt Quick one: intrinsic clearance, rat liver microsomes for O=c1c(-n2ccnn2)c[nH]n1-c1cc(N2CCOCC2)ncn1 ?
### Response 2.75 L/h/kg
